System Under Test: hERG (Kv11.1, KCNH2) (Homo sapiens, UniProt Q12809)
Sequence (Q12809 whole entry): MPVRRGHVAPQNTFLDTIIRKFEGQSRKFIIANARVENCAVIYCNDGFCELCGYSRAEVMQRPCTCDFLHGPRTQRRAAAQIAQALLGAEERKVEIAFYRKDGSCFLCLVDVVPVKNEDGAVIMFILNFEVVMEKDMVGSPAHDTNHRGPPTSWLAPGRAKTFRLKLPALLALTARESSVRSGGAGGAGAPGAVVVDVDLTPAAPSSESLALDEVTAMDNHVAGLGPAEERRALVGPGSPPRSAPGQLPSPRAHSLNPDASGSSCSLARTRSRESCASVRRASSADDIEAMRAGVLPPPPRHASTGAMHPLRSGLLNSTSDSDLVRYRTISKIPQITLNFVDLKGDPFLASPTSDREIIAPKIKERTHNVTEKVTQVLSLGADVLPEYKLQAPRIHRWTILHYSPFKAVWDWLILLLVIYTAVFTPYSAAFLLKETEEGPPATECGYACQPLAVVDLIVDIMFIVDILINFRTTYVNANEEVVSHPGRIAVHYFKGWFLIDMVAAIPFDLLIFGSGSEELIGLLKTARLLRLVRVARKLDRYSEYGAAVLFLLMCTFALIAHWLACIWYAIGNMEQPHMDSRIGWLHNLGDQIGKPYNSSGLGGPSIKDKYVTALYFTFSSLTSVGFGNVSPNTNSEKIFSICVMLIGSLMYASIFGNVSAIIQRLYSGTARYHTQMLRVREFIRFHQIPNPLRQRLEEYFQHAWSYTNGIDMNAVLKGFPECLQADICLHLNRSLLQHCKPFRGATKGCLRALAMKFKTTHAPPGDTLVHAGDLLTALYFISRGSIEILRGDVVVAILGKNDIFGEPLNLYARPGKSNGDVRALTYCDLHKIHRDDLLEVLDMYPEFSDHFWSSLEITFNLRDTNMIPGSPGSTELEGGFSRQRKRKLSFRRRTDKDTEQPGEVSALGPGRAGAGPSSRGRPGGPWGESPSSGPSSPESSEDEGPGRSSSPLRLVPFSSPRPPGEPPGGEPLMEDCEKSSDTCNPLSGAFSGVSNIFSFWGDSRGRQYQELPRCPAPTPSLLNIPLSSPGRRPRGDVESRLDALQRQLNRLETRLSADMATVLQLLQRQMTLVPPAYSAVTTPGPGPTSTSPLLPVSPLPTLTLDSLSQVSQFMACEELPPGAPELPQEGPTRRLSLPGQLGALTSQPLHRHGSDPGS
Test Method Notes: in vitro
Description: MMV: Malaria Box compounds were tested for inhibition of the human ether a go-go related gene (hERG), Kv11.1 channel, using IonWorks 384-well patch clamp electrophysiology at 1.1uM (3 independent assay plates up to 12 cells per concentration).
Readings of inhibition at 1.1 µM for the listed compounds
Give the value, in units of %, as a plain number.

// below: answered compounds
# Compound, Readout Units, inhibition at 1.1 µM
measured = [
    ("CCCCCCc1cc2cc(-c3csc(C=Cc4ccccc4)n3)c(=O)oc2cc1O", "%", 81),
    ("CCn1c(SCC(=O)Nc2cc(C(F)(F)F)ccc2Cl)nc2ccccc2c1=O", "%", -1),
    ("CCOc1cc(Cl)c(C(C)NC(=O)c2ccccc2)cc1OCC (stereo unspecified)", "%", -6),
    ("COc1ccccc1NC1=C(N2CCCCC2)C(=O)c2ccccc2C1=O", "%", 4),
    ("N=c1n(CCN2CCCCC2)c2ccccc2n1CC(O)c1cccc(Br)c1 (stereo unspecified)", "%", 18),
]

Input line: GET /values?readout=inhibition at 1.1 µM&item= O=C(Nc1ccc(Cl)cc1C(=O)Nc1ccncc1)c1ccc(Cl)cc1Cl
Output line: 4
